tgt: T1, EsCas13d, nuclease-dead (Eubacterium siraeum, UniProt B0MS50, R295A;H300A;R849A;H854A)
T1 sequence: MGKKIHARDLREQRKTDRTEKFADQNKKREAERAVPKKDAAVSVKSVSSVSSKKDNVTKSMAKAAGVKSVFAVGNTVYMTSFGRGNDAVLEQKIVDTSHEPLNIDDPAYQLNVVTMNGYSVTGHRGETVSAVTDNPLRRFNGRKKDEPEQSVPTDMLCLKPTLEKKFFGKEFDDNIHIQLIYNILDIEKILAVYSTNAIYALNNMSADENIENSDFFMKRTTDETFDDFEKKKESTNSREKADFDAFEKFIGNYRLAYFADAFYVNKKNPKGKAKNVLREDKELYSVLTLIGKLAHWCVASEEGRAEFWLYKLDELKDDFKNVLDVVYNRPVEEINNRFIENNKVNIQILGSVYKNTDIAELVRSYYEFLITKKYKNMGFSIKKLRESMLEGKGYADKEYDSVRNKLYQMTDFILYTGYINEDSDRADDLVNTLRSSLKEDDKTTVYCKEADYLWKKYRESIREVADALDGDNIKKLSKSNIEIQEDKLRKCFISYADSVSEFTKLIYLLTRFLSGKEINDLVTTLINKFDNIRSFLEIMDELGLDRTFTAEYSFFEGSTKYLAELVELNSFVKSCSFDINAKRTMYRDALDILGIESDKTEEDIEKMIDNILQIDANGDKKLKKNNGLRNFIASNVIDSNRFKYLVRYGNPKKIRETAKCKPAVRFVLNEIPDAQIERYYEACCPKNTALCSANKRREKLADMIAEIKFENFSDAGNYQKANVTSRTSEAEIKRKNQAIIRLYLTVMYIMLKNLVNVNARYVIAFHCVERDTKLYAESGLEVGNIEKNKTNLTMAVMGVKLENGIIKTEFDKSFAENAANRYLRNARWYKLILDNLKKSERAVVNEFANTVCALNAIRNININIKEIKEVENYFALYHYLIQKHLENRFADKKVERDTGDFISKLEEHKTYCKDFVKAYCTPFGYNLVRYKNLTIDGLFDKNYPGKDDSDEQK
assay-name: crRNA (strand 1, pre-loaded); Mg2+; 40 mM Tris-HCl pH 7.5, 150 mM NaCl, 6 mM MgCl2, 1 mM DTT, 0.1% Tween-20, 0.2 mg/ml BSA; 25 C; 10 min per concentration, then washed
experimental-context: tags: His6-TwinStrep-SUMO cleaved; N-terminal SNAP kept (SNAP-Surface 488); label: 3' end held by stalled T7 RNA polymerase
Kd strictly under 20 nM means true; at 20 nM or over means false.

Solved entries (count: 5):
binder	group-label
target 2 MT 5'PFS GUA 3'PFS UCU (mixed) RNA 1: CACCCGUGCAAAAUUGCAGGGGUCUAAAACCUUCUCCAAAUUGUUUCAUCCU RNA 2: GGGAAUGGAUCCACAUCUACGAAUUCGUAAGGAUGAAACAAUUUGGAGAAGUCUAGAUCGGAAGAGCACACGU	true
target 1 insG 3' of 20,insG 3' of 3 (mixed) RNA 1: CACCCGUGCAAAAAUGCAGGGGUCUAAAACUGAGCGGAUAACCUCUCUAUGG RNA 2: GGGAAUGGAUCCACAUCUACGAAUUCGUACCAGUAGAGAGGUUAUCCGCUGCACCGAGAUCGGAAGAGCACACGU	false
target 1 U10A,G12U (mixed) RNA 1: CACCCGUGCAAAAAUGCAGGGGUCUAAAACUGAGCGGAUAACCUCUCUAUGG RNA 2: GGGAAUGGAUCCACAUCUACGAAUUCGUACCAUAGAGAGUUAAUCCGCUCACCGAGAUCGGAAGAGCACACGU	true
target 1 insU 3' of 17,insC 3' of 16 (mixed) RNA 1: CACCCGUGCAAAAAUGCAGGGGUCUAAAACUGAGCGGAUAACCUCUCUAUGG RNA 2: GGGAAUGGAUCCACAUCUACGAAUUCGUACCAUAGUACGAGGUUAUCCGCUCACCGAGAUCGGAAGAGCACACGU	false
target 3 A5G,U8G (mixed) RNA 1: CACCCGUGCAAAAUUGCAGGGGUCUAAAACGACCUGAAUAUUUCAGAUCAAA RNA 2: GGGAAUGGAUCCACAUCUACGAAUUCGUUUUUGAUCUGAAAUAGUCGGGUCUGCAGAUCGGAAGAGCACACGU	false

Next up:
Input line: Determine if target 1 A1U,G5A (mixed) RNA 1: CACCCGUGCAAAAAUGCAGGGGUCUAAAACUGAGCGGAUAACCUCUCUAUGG RNA 2: GGGAAUGGAUCCACAUCUACGAAUUCGUACCAUAGAGAGGUUAUCCACUCUCCGAGAUCGGAAGAGCACACGU shows Kd strictly lower than 20 nM.
Output line: false
